- tested-target: T1, human EphA4 (Homo sapiens, UniProt P54764)
- T1 construct: made in house; not restated for the human SEAP-His protein
- T1 sequence (P54764 20-547): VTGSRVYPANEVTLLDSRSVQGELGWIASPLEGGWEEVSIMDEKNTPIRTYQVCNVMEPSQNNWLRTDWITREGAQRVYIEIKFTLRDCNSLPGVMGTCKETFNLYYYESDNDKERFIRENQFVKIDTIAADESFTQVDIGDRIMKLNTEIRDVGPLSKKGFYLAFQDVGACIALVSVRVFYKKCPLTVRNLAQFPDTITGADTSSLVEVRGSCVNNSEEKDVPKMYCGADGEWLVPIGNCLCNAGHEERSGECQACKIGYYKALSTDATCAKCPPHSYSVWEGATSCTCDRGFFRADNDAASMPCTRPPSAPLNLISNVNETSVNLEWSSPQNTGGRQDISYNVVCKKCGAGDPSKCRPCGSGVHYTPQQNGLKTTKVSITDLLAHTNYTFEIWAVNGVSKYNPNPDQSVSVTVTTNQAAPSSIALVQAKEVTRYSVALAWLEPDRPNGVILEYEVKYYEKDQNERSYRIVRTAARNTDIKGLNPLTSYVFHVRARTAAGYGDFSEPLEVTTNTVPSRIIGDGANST
- assay-text: Affinity of humanized antibodies by SPR (Biacore T200)
- Format: binding
- applied-conditions: human EphA4 extracellular region-SEAP-His; KD=kd/ka
readout-name: pKd
Numbers only, as −log10 of the molar value.

144 (antibody, V domains shown, synthetic humanized antibody heavy chain variable region sequence; synthetic humanized antibody light chain variable region sequence) VH: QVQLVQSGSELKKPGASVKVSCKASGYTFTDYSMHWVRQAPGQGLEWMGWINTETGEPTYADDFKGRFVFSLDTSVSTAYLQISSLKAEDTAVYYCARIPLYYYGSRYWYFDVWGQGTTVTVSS VL: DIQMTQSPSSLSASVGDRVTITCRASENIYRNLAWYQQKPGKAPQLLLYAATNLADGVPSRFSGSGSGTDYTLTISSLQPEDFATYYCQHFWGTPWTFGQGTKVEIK    8.70

Look at this molecule and give its reported pKd. 133 (antibody, V domains shown, synthetic humanized antibody heavy chain variable region sequence; synthetic humanized antibody light chain variable region sequence) VH: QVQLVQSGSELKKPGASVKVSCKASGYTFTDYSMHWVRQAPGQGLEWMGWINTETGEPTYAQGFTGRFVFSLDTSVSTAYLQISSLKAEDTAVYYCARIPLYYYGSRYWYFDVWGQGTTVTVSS VL: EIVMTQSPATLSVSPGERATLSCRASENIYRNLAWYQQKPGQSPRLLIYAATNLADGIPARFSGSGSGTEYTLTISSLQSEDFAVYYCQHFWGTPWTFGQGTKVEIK
8.96

Origin of measurements: patent US10428140B2
